test: Selectivity ratio of IC50 for cytotoxicity against green monkey Vero cells to IC50 for antiproliferative activity against human LoVo cells; type: toxicity, cell-based; conditions: Vero cells versus LoVo cells, read-out: Ratio IC50
endpoint: selectivity ratio
// no unit, no text: just the number

Prompt: What does the data say about its selectivity ratio? Entry: O=C(/C=C/c1cn(S(=O)(=O)c2ccc([N+](=O)[O-])cc2)c2ccc(N3CCOCC3)cc12)c1cccnc1
Response: 5

====

test: Cytotoxicity against green monkey Vero cells assessed as inhibition of cell growth incubated for 48 hrs by CCK-8 assay; type: toxicity, cell-based; conditions: African green monkey (Chlorocebus sabaeus)
endpoint: IC50 at 48 h (nM)
Hi! Could you send only the number? It should be in nM, unit omitted.

Prompt: What does the data say about its IC50 at 48 h? Entry: O=C(/C=C/c1cn(S(=O)(=O)c2ccc([N+](=O)[O-])cc2)c2ccc(N3CCOCC3)cc12)c1cccnc1
Response: 2320

====

test system: LoVo; experiment: Antiproliferative activity against human LoVo cells assessed as inhibition of cell proliferation incubated for 3 days by CCK-8 assay; assay type: functional, cell-based; settings: 72 h
endpoint: pIC50
# pIC50 is unitless: minus log10 of the molar concentration; print number only

Prompt: Notebook: pull reported pIC50 for LoVo, entry O=C(/C=C/c1cn(S(=O)(=O)c2ccc([N+](=O)[O-])cc2)c2ccc(N3CCOCC3)cc12)c1cccnc1
Response: 6.26

====

A collection of compounds and their measured IC50
test system: LoVo; assay: Antiproliferative activity against human LoVo cells assessed as inhibition of cell growth incubated for 48 hrs by CCK-8 assay; format: functional, cell-based
Write the figure, then the unit, nothing else.

Record excerpt, results attached:
O=C(/C=C/c1cn(S(=O)(=O)c2ccc([N+](=O)[O-])cc2)c2ccc(N3CCOCC3)cc12)c1cccnc1 | 446 nM
O=C(/C=C/c1cn(S(=O)(=O)c2ccc([N+](=O)[O-])cc2)c2ccc(N3CCOCC3)cc12)c1ccncc1 | 392 nM
O=C(/C=C/c1cn(S(=O)(=O)c2ccc([N+](=O)[O-])cc2)c2ccc(N3CCOCC3)cc12)c1ncccn1 | 1300 nM

With those in mind, consider the next compound.
Prompt: Notebook: pull reported IC50 for LoVo, entry O=C(/C=C/c1cn(S(=O)(=O)c2ccc([N+](=O)[O-])cc2)c2ccc(N3CCOCC3)cc12)c1cncnc1
Response: 679 nM
